target: UniProt:P49841; assay: GSK3β kinase assay (Ser/Thr 09 peptide Z-lyte FRET); type: biochemical; conditions: read-out: EC50 (method: IC50)
observed property: IC50 (nM)

Example cases with answers are listed next.
Cc1ncc(-c2ccc3[nH]nc(C(=O)NC4CCN(c5ccc(F)cc5)CC4)c3c2)n1C : 57
CN1CCC(n2cc(-c3ccc4[nH]nc(C(=O)Nc5ccc(F)cc5)c4c3)cn2)CC1 : 548
CC(C)CN1CC[C@@H](NC(=O)c2n[nH]c3ccc(-c4cnn(C)c4)cc23)[C@@H](F)C1 : 55
Cc1ncc(-c2cc(F)c3[nH]nc(C(=O)N[C@@H](C)C(F)(F)F)c3c2)n1C : 46
Cc1ncc(NC(=O)c2n[nH]c3ccc(-c4cnn(C5CCNCC5)c4)cc23)s1 : 98
Cn1cc(-c2ccc3[nH]nc(C(=O)Nc4ccc(CN5CCCC5)cc4F)c3c2)cn1 : 68
CN1CCC(n2cc(NC(=O)c3n[nH]c4ccc(-c5cnn(C)c5)cc34)cn2)CC1 : 4
O=C(Nc1ccc(N2CCCC2)nc1)c1n[nH]c2cc(F)c(-c3cnn(C4CCNCC4)c3)cc12 : 272
O=C(Nc1ccc(F)cc1)c1n[nH]c2ccc(-c3cnn(C4CC4)c3)cc12 : 704
CN1CCC(n2cc(-c3ccc4[nH]nc(C(=O)Nc5cnn(C)c5)c4c3)cn2)CC1 : 208

[P] C[C@@H](NC(=O)c1n[nH]c2ccc(-c3cnn(C)c3)cc12)C(F)(F)F
[Q] Cn1cc(-c2ccc3[nH]nc(C(=O)NCCC(F)(F)F)c3c2)cn1
Request: Which record would sort first by descending IC50, P or Q ? Response format: the label of the selected entry.
Result: P

[P] CN1CCC(Oc2ccc(NC(=O)c3n[nH]c4ccc(-c5cnn(C)c5)cc34)cn2)CC1
[Q] CN1CCC(Oc2ccc(NC(=O)c3n[nH]c4cc(F)c(-c5cnn(C)c5)cc34)cc2)CC1
Request: Which value of IC50 is smaller, the one for P or the one for Q ? Response format: the label of the selected entry.
Result: P
(P: 23 nM, Q: 60 nM)

* * *

biological target: GSK3β kinase (Homo sapiens (Human)); assay: GSK3β kinase assay (Ser/Thr 09 peptide Z-lyte FRET); type: biochemical; settings: read-out: EC50 (method: IC50)
Sequence (P49841 whole entry): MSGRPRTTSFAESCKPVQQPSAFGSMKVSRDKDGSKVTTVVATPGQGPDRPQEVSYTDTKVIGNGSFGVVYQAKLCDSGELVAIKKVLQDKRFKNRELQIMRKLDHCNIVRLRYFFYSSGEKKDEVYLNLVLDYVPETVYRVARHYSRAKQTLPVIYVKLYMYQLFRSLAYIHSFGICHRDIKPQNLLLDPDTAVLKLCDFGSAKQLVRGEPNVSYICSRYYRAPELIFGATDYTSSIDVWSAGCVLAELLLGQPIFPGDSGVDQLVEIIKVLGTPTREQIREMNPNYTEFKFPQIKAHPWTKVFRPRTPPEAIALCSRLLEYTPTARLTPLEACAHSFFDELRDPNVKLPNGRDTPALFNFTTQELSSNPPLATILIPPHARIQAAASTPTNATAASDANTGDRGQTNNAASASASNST
pIC50: −log10 of the molar value.
observed property: pIC50

[I] O=C(Nc1ccc(F)cc1)c1n[nH]c2cc(F)c(-c3cnn(C4CCNCC4)c3)cc12
[II] Cc1ncc(-c2ccc3[nH]nc(C(=O)NC4CCN(CC(C)(C)F)CC4)c3c2)n1C
[III] O=C(Nc1ccc(OC(F)F)cc1)c1n[nH]c2ccc(-c3cnn(C4CNC4)c3)cc12
[IV] Cn1cc(-c2cc3c(C(=O)Nc4cccc(OC5CCNCC5)c4)n[nH]c3cc2F)cn1
Request: Put the items in sequence by pIC50, from largest down. Give the labels in the order specified.
Result: II, IV, I, III
(II: 7.54, IV: 7.28, I: 6.73, III: 5.68)

* * *

target: GSK3β kinase (Homo sapiens (Human)); assay: GSK3β kinase assay (Ser/Thr 09 peptide Z-lyte FRET); format: biochemical; conditions: read-out: EC50 (method: IC50)
observed property: IC50 (nM)

CC(C)n1cc(-c2cc3c(C(=O)Nc4ccc(OC5CCN(C)CC5)cc4)n[nH]c3cc2F)cn1 [Compound 158] : 349
CC(C)(F)CN1CCC(NC(=O)c2n[nH]c3ccc(-c4cn[nH]c4)cc23)CC1 [Compound 36] : 23
CN1CCC(Nc2ccc(NC(=O)c3n[nH]c4cc(F)c(-c5cnn(C)c5)cc34)cc2)CC1 [Compound 83] : 74
CN1CCC(n2cc(-c3cc4c(C(=O)Nc5ccc(F)cc5)n[nH]c4cc3F)cn2)CC1 [Compound 51] : 558
CN1CCC(CNC(=O)c2n[nH]c3ccc(-c4cnn(C)c4)cc23)CC1 [Compound 147] : 15

[a] CC(C)(F)CN1CCC(n2cc(-c3ccc4[nH]nc(C(=O)Nc5ccc(OC(F)F)cc5)c4c3)cn2)CC1 [Compound 61]
[b] CN1CCC(Oc2ccc(NC(=O)c3n[nH]c4cc(F)c(-c5cnn(C)c5)cc34)cn2)CC1 [Compound 96]
Request: Which value of IC50 is smaller, the one for a or the one for b ? Response format: the label of the selected entry.
Result: b
(b: 30 nM, a: 9370 nM)

[P] CN1CC2(CCC(NC(=O)c3n[nH]c4ccc(-c5cnn(C)c5)cc34)CC2)C1 [Compound 45]
[Q] Cn1cc(-c2cc(F)c3[nH]nc(C(=O)N[C@@H]4CCCC[C@H]4F)c3c2)cn1 [Compound 11]
Request: Which value of IC50 is smaller, the one for P or the one for Q ? Response format: the label of the selected entry.
Result: Q

[I] Cc1c(-c2cc3c(C(=O)Nc4ccc(OC5CCN(C)CC5)cc4)n[nH]c3cc2F)cnn1C [Compound 81]
[II] CC(C)CNC(=O)c1n[nH]c2ccc(-c3cnn(C)c3)cc12 [Compound 2]
Request: Which record would sort first by descending IC50, I or II ? Response format: the label of the selected entry.
Result: I

[I] O=C(N[C@H]1CC[C@H](CN2CC(F)C2)CC1)c1n[nH]c2ccc(-c3cnn(C4CC4)c3)cc12 [Compound 26]
[II] O=C(Nc1ccc(OC(F)F)nc1)c1n[nH]c2ccc(-c3cnn(CCN4CCOCC4)c3)cc12 [Compound 90]
Request: Which record would sort first by descending IC50, I or II ? Response format: the label of the selected entry.
Result: II
(II: 403 nM, I: 34 nM)

* * *

tested on: IL-6; test: IL-6 inhibition in LPS-stimulated human peripheral blood mononuclear cells (HTRF); type: cell-based; details: Homo sapiens, PBMC; read-out: percent inhibition at 10 μM
observed property: inhibition at 10 µM (%)
Give the quantity in %, number only.

Request: // fetch inhibition at 10 µM given entry Cn1cc(-c2ccc3[nH]nc(C(=O)Nc4ccc(CN5CCCC5)cc4O)c3c2)cn1 [Compound 74]
Result: 22.1

Request: // fetch inhibition at 10 µM given entry O=C(Nc1ccc(OC(F)F)cc1)c1n[nH]c2ccc(-c3cnn(CC4CCNCC4)c3)cc12 [Compound 63]
Result: 6.2

* * *

target: GSK3β kinase (Homo sapiens (Human)); assay: GSK3β kinase assay (Ser/Thr 09 peptide Z-lyte FRET); type: biochemical; conditions: read-out: EC50 (method: IC50)
pIC50: −log10 of the molar value.
observed property: pIC50

[P] O=C(NC1CCC(F)(F)CC1)c1n[nH]c2ccc(-c3cnn(C4CC4)c3)cc12
[Q] Cn1cc(-c2ccc3[nH]nc(C(=O)NC45CC6CC(CC(C6)C4)C5)c3c2)cn1
Request: Which record would sort first by descending pIC50, P or Q ? Response format: the label of the selected entry.
Result: P
(P: 7.19, Q: 5.87)

[1] Cc1ncc(-c2ccc3[nH]nc(C(=O)N[C@H]4CCN(CC(C)C)C[C@@H]4F)c3c2)n1C
[2] CC(C)CN1CC[C@H](NC(=O)c2n[nH]c3ccc(-c4cnn(C5CC5)c4)cc23)[C@@H](F)C1
Request: Which record would sort first by descending pIC50, 1 or 2 ? Response format: the label of the selected entry.
Result: 1

* * *

system: Wnt activity (Sp5-Luc reporter in SW480 cells); assay: Screening assay for Wnt activity: Sp5-Luc reporter gene assay in SW480 colon carcinoma cells; type: cell-based, human; settings: Homo sapiens, 36 to 48 hours
observed property: EC50 (µM)

Example cases with answers are listed next.
CN1CCC(Oc2ccc(NC(=O)c3n[nH]c4cc(F)c(-c5cnn(C(F)F)c5)cc34)cc2)CC1 [Compound 80] : 8.52
Cn1cc(-c2cc3c(C(=O)N[C@H]4CC[C@H](CN5CC(F)C5)CC4)n[nH]c3cc2F)cn1 [Compound 24] : 1.34
Cn1cc(-c2ccc3[nH]nc(C(=O)Nc4ccc(CN5CCCC5)cc4)c3c2)cn1 [Compound 68] : 0.264

[1] Cn1ncc(-c2ccc3[nH]nc(C(=O)NC4CCN(CC(C)(C)F)CC4)c3c2)c1C(F)F [Compound 41]
[2] CN1CCC(Oc2ccc(NC(=O)c3n[nH]c4cc(F)c(-c5cnn(C)c5)cc34)cn2)CC1 [Compound 96]
Request: Which record would sort first by descending EC50, 1 or 2 ? Response format: the label of the selected entry.
Result: 1

* * *

system: Wnt activity (Sp5-Luc reporter in SW480 cells); test: Screening assay for Wnt activity: Sp5-Luc reporter gene assay in SW480 colon carcinoma cells; assay type: cell-based, human; conditions: Homo sapiens, 36 to 48 hours
observed property: EC50 (nM)

[I] O=C(N[C@@H]1CCCC[C@H]1F)c1n[nH]c2ccc(-c3cnn(C4CC4)c3)cc12 [Compound 12]
[II] CNC(=O)c1ccc(NC(=O)c2n[nH]c3ccc(-c4cnn(C5CCN(C)CC5)c4)cc23)cn1 [Compound 128]
[III] CN1CCC(n2cc(-c3cc4c(C(=O)Nc5cncc(F)c5)n[nH]c4cc3F)cn2)CC1 [Compound 126]
Request: Put the items in sequence by EC50, from largest down. Give the labels in the order specified.
Result: I, III, II
(I: 5470 nM, III: 335 nM, II: 180 nM)
